Consider compounds characterized by their Ki with Sodium-dependent serotonin transporter (Rattus norvegicus).
Sequence (P31652 whole entry): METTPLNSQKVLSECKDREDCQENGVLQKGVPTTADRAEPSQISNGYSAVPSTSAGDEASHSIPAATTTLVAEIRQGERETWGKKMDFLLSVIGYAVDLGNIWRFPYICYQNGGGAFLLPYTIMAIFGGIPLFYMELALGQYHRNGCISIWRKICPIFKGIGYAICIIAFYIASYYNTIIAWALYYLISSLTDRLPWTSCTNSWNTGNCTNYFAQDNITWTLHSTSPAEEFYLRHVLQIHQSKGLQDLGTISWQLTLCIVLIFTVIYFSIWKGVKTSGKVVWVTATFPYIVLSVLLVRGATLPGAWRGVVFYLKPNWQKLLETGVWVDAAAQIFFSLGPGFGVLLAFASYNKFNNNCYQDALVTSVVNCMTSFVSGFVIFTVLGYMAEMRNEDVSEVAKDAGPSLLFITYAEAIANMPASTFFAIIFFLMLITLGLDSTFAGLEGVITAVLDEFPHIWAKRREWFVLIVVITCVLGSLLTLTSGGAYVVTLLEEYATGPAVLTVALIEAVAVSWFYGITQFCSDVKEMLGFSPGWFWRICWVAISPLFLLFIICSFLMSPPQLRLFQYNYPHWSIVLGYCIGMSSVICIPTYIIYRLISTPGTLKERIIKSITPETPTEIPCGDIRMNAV

[
  {
    "compound": "CC(COc1ccc2c(c1)NC(=O)CO2)NCC(O)COc1cccc2[nH]ccc12 (stereo in doubt; 1)",
    "measurement.unit": "nM",
    "Ki": 50.1
  },
  {
    "compound": "CC(COc1ccc2c(c1)NC(=O)CO2)NCC(O)COc1cccc2[nH]ccc12 (stereo in doubt; 1d)",
    "measurement.unit": "nM",
    "Ki": 316
  },
  {
    "compound": "O=C1COc2ccc(CN3CCN(CCOc4cccc5ncccc45)CC3)cc2N1",
    "measurement.unit": "nM",
    "Ki": 31.6
  },
  {
    "compound": "CC(COc1ccc2c(c1)NC(=O)CO2)NCC(O)COc1cccc2[nH]ccc12 (stereo in doubt; 1c)",
    "measurement.unit": "nM",
    "Ki": 100
  },
  {
    "compound": "O=C1COc2ccc(CC3CCN(CCOc4cccc5ncccc45)CC3)cc2N1",
    "measurement.unit": "nM",
    "Ki": 6.31
  },
  {
    "compound": "O=C1COc2ccc(OCCNCCCOc3cccc4[nH]ccc34)cc2N1",
    "measurement.unit": "nM",
    "Ki": 79.4
  },
  {
    "compound": "N#Cc1cc2c(OCCN3CCC(Oc4ccc5c(c4)NC(=O)CO5)CC3)cccc2[nH]1",
    "measurement.unit": "nM",
    "Ki": 7.94
  },
  {
    "compound": "CC(COc1ccc2c(c1)NC(=O)CO2)NCC(O)COc1cccc2[nH]ccc12 (stereo in doubt; 1a)",
    "measurement.unit": "nM",
    "Ki": 126
  },
  {
    "compound": "O=C1COc2ccc(OC3CCN(CCOc4cccc5cccnc45)CC3)cc2N1",
    "measurement.unit": "nM",
    "Ki": 39.8
  }
]

----------
- study.target: 5-hydroxytryptamine receptor 1A (Homo sapiens) (UniProt P08908)
- Sequence (P08908 whole entry): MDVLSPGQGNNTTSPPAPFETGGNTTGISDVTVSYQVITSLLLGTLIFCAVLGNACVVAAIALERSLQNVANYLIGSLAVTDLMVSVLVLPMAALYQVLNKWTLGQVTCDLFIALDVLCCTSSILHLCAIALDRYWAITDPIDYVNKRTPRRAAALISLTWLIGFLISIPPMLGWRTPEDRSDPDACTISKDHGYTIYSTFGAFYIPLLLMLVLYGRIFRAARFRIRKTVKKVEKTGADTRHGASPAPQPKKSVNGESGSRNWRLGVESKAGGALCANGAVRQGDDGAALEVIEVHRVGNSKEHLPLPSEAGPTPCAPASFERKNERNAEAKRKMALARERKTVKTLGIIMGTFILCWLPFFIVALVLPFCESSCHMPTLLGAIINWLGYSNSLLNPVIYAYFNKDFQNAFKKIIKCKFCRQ
- experiment.description: Mean intrinsic activity was measured for the human 5-hydroxytryptamine 1A receptor; n=3
# strict inequality: IA < 0.3 yields fulfilled, everything else yields not fulfilled

[
  {
    "compound": "O=C1COc2ccc(OC3CCN(CCOc4cccc5ncccc45)CC3)cc2N1",
    "discrete.label": "fulfilled"
  },
  {
    "compound": "O=C1COc2ccc(OC3CCN(CCOc4cccc5cccnc45)CC3)cc2N1",
    "discrete.label": "not fulfilled"
  },
  {
    "compound": "CC(COc1ccc2c(c1)NC(=O)CO2)NCC(O)COc1cccc2[nH]ccc12 (stereo in doubt; 1a)",
    "discrete.label": "not fulfilled"
  },
  {
    "compound": "CC(COc1ccc2c(c1)NC(=O)CO2)NCC(O)COc1cccc2[nH]ccc12 (stereo in doubt; 1d)",
    "discrete.label": "fulfilled"
  },
  {
    "compound": "Cc1ccc2c(OCCN3CCC(Cc4ccc5c(c4)NC(=O)CO5)CC3)cccc2n1",
    "discrete.label": "fulfilled"
  },
  {
    "compound": "O=C1COc2ccc(CC3CCN(CCOc4cccc5ncccc45)CC3)cc2N1",
    "discrete.label": "fulfilled"
  },
  {
    "compound": "O=C1COc2ccc(CN3CCN(CCOc4cccc5ncccc45)CC3)cc2N1",
    "discrete.label": "fulfilled"
  },
  {
    "compound": "O=C1COc2ccc(OC3CCN(CCOc4cccc5ccccc45)CC3)cc2N1",
    "discrete.label": "not fulfilled"
  }
]
